Measured pKi accompanies every entry in the list below.
Biological target: human 5HT1Dα receptor (Homo sapiens, UniProt P28221)
Construct: host or cells: LM(tk-) clonal cell line Ltk-8-30-84
Sequence (P28221 whole entry): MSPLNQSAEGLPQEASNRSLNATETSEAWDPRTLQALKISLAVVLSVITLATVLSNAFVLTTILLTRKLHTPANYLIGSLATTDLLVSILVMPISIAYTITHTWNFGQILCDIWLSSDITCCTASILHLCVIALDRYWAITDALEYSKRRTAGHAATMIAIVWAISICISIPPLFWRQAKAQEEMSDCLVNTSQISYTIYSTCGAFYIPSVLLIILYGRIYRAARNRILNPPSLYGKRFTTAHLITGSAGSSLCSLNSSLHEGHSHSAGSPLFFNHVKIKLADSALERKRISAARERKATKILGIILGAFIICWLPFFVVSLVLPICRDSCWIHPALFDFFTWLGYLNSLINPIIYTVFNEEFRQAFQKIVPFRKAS
Test: [3H]serotonin competition binding, 5HT1Dα receptor
pKi: −log10 of the molar value.
EXPERIMENTAL READOUT: pKi

* COc1ccc(CCNCC2CCc3ccccc3C2)cc1 (stereo not drawn) [Compound 11] | < 6.00
* COC(=O)C1=C(C)NC(C)=C(C(=O)OCCCN2CCC(c3ccccc3)(c3ccccc3)CC2)C1c1ccc([N+](=O)[O-])cc1.Cl (stereo not drawn) [Compound 8, hydrochloride] | < 6.00
* COC(=O)C1=C(C)NC(C)=C(C(=O)NCCCN2CCC(c3ccccc3)(c3ccccc3)CC2)C1c1ccc([N+](=O)[O-])cc1.Cl.O (stereo not drawn) [Compound 2, hydrochloride hydrate] | < 7.00

The measurements presented in this section are drawn from patent US6602888B2.
